The reported measurements were obtained from patent US6124323A.

# targetOfAssay: NMDA receptor subunits 1A/2B (Rattus norvegicus, UniProt P35439+Q00960)
# Construct: expressed in transfected cells; host or cells: Xenopus laevis oocytes (cRNA injection; clones from Dr. P. H. Seeburg)
# Sequence (Q00960 27-1482, other chains not shown): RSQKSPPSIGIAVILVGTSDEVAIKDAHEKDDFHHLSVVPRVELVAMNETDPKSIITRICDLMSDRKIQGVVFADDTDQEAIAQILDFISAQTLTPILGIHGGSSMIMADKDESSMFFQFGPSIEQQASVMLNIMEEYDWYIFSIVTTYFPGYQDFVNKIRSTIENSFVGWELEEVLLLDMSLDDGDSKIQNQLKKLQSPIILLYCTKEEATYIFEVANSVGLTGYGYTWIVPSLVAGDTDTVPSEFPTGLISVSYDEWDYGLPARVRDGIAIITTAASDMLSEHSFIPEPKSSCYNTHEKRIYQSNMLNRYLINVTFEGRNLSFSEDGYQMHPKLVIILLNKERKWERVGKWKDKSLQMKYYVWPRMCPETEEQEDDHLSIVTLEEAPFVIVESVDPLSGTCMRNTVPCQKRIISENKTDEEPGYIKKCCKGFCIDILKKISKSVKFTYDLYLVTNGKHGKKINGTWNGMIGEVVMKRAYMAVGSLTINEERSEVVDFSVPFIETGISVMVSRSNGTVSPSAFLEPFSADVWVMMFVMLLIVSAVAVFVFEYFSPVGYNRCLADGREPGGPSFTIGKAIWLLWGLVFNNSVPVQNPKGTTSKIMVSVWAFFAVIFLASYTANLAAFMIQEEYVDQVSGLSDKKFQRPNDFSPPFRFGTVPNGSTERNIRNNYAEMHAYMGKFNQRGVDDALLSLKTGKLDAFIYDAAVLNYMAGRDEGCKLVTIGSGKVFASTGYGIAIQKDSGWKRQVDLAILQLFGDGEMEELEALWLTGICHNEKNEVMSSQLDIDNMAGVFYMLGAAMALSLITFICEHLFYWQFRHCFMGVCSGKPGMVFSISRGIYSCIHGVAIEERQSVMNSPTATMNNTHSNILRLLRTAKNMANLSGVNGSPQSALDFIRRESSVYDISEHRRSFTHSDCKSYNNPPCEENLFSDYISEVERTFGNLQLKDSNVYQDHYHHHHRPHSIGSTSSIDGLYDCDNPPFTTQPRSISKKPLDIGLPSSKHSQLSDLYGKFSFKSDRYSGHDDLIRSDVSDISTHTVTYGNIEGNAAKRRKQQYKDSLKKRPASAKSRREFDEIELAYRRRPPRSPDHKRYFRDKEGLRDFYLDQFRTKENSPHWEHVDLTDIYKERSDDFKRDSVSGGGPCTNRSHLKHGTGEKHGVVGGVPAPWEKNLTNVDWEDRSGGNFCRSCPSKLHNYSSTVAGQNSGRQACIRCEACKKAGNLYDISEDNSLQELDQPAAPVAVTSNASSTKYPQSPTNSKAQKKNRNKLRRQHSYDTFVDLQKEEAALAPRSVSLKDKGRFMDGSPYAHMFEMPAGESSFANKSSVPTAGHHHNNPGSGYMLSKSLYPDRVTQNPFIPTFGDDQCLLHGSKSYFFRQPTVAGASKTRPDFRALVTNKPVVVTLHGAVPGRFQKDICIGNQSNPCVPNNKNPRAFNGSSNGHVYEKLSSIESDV
# experimentDescription: Electrophysiological assay at NMDA receptor subunits expressed in Xenopus oocytes, 1A/2B
# Assay type: cell-based
# conditionParameters: Xenopus oocytes; glutamate 100 μm and glycine 1-100 μm; read-out: Subunits IC50, 1A/2B
# From the text: Many of the properties of native NMDA receptors are seen in recombinant homomeric NR1 receptors. These properties are altered by the NR2 subunits. Recombinant NMDA receptors expressed in Xenopus oocytes have been studied by voltage-clamp recording, as has developmental and regional expression of the mRNAs encoding NMDA receptor subunits. Electrophysiological assays were utilized to characterize the actions of compounds at NMDA receptors expressed in Xenopus oocytes. […]
Structures can show the parent of a compound that is named as a salt.
resultType: IC50 (µM)

[1] Oc1ccc(OCCN2CCC(Cc3ccc4c(c3)CCCC4)CC2)cc1 [Ex. 139, hydrochloride]
[2] Cl.Oc1ccc(OCCN2CCC(Cc3c(F)cccc3F)CC2)cc1 [Ex. 146, hydrochloride]
Exercise: For 1 and 2 , which recorded IC50 is lower? Field: selected label. Fill in the label of the entry you choose.
Solution: 2
(2: 0.01 µM, 1: 0.25 µM)

* * *

# targetOfAssay: NMDA receptor subunits 1A/2B (Rattus norvegicus, UniProt P35439+Q00960)
# Construct: expressed in transfected cells; host or cells: Xenopus laevis oocytes (cRNA injection; clones from Dr. P. H. Seeburg)
# experimentDescription: Electrophysiological assay at NMDA receptor subunits expressed in Xenopus oocytes, 1A/2B
# Assay type: cell-based
# conditionParameters: Xenopus oocytes; glutamate 100 μm and glycine 1-100 μm; read-out: Subunits IC50, 1A/2B
Counter-ions that a name gives are not always drawn.
resultType: IC50 (nM)

Exercise: Give the measured IC50 of Clc1ccc(CC2CCN(CCOc3ccccc3)CC2)cc1 [Ex. 24, hydrochloride] .
Solution: 1000

[I] NNC(=O)Cc1cccc(OCCN2CCC(Cc3ccccc3)CC2)c1 [Ex. 20]
[II] O=c1[nH]c2ccc(OCCN3CCC(Cc4ccccc4)CC3)cc2o1 [Ex. 182]
Exercise: Return label of the item with the larger IC50. Candidates: I , II . // caller expects the label of the chosen entry
Solution: II
(II: 1000 nM, I: 700 nM)

* * *

# targetOfAssay: NMDA receptor subunits 1A/2C (Rattus norvegicus, UniProt P35439+Q00961)
# Construct: expressed in transfected cells; host or cells: Xenopus laevis oocytes (cRNA injection; clones from Dr. P. H. Seeburg)
# Sequence (Q00961 20-1237, other chains not shown): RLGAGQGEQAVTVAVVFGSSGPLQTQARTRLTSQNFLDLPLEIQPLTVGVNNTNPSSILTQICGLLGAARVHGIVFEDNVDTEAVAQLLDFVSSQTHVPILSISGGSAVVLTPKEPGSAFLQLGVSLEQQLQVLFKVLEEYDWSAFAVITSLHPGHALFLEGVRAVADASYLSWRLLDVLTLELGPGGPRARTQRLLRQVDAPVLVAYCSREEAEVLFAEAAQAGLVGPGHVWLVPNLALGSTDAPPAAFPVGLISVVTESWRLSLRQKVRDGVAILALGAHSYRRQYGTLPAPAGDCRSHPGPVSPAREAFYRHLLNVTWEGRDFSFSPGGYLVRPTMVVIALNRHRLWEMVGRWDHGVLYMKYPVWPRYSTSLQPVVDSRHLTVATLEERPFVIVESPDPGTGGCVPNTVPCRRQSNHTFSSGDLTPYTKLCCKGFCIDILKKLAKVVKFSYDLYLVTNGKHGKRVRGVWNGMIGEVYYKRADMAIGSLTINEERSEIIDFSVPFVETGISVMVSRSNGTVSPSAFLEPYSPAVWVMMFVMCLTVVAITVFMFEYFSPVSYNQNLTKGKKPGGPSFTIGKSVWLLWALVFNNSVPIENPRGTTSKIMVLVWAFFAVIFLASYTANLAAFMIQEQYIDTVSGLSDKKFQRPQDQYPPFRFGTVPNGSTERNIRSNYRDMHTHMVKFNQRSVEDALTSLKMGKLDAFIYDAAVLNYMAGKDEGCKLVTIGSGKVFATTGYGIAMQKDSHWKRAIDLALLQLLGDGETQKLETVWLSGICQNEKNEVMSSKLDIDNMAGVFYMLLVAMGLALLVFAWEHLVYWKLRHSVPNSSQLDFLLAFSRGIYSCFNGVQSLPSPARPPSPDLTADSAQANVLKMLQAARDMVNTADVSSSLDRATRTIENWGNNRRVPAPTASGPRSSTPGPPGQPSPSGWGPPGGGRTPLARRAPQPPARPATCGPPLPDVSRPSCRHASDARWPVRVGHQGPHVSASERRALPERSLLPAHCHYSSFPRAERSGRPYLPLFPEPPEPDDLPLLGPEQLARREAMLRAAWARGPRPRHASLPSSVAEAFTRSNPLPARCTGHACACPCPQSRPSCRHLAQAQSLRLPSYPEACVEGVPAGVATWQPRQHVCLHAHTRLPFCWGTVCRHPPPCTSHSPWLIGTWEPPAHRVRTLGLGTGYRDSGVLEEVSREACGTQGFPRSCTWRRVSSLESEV
# experimentDescription: Electrophysiological assay at NMDA receptor subunits expressed in Xenopus oocytes, 1A/2C
# Assay type: cell-based
# conditionParameters: Xenopus oocytes; glutamate 100 μm and glycine 1-100 μm; read-out: Subunits IC50, 1A/2C
pIC50: −log10 of the molar value. Structures can show the parent of a compound that is named as a salt.
resultType: pIC50

Exercise: Find the recorded pIC50 belonging to Oc1ccc2cc(OCCN3CCC(Cc4ccccc4)CC3)ccc2c1 and report it.
Solution: 3.89

Exercise: Returns the measured pIC50 for the input compound. Input: Cc1ccc(CC2CCN(CCOc3ccc(F)cc3)CC2)cc1 [Ex. 116, hydrochloride]
Solution: 3.82

* * *

# targetOfAssay: NMDA receptor subunits 1A/2A (Rattus norvegicus, UniProt P35439+Q00959)
# Construct: clones from Dr. P. H. Seeburg)
# Sequence (Q00959 20-1464 limits assumed, other chains not shown): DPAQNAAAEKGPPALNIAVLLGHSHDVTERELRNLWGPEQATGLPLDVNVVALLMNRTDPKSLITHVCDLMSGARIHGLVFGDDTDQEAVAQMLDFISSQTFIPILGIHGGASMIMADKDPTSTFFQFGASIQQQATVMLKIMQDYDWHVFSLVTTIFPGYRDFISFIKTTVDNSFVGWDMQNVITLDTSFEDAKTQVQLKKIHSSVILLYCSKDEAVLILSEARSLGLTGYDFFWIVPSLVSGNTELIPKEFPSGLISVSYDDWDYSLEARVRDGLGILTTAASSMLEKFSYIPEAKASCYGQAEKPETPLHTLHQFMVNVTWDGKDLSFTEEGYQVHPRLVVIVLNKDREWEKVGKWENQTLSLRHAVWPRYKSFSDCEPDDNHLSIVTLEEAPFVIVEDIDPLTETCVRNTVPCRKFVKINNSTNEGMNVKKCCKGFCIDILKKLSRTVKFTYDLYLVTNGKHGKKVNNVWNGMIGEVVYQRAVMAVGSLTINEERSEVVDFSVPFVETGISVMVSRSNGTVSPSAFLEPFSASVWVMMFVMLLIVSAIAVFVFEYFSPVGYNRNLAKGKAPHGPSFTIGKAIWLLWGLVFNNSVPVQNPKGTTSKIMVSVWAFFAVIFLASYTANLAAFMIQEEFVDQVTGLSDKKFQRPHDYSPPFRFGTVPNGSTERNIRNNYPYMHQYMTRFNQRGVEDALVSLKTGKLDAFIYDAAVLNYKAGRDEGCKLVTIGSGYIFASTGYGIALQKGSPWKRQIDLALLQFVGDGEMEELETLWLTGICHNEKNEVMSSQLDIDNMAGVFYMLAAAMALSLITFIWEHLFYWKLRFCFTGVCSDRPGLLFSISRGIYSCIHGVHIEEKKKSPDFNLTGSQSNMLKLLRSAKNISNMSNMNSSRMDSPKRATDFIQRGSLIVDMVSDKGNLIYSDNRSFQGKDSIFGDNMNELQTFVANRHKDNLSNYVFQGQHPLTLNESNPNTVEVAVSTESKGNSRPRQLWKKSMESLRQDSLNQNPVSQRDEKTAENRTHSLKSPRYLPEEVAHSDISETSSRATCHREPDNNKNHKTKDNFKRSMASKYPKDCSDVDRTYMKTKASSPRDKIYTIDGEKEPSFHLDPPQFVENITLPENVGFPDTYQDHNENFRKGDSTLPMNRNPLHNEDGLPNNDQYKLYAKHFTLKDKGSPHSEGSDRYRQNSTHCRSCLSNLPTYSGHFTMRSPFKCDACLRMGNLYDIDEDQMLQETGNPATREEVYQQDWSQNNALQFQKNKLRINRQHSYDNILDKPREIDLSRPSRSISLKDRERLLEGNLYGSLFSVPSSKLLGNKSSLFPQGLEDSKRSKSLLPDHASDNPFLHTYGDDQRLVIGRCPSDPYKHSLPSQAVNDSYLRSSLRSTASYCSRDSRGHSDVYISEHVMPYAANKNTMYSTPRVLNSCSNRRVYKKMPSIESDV
# experimentDescription: Electrophysiological assay at NMDA receptor subunits expressed in Xenopus oocytes, 1A/2A
# conditionParameters: glutamate 100 μm and glycine 1-100 μm
pIC50: −log10 of the molar value. Counter-ions that a name gives are not always drawn.
resultType: pIC50

Answered cases to consult:
Exercise: Give its pIC50 value. Item: Oc1ccc(OCCN2CCC(Cc3ccc(C(F)(F)F)cc3)CC2)cc1 [Ex. 129, hydrochloride]
Solution: 3.77

Exercise: Reported pIC50 for S=c1[nH]c2ccc(OCCN3CCC(Cc4ccc(Cl)cc4)CC3)cc2[nH]1 [Ex. 176] : what is it?
Solution: 4.60

Exercise: GET /values?readout=pIC50&item= Fc1ccc(OCCN2CCC(Cc3ccc(Cl)cc3)CC2)cc1 [Ex. 25, hydrobromide]
Solution: 4.22

[a] Oc1ccc(OCCN2CCC(Cc3ccc(Cl)cc3)CC2)cc1 [Ex. 101, hydrochloride]
[b] Br.Br.Nc1ccc(OCCN2CCC(Cc3ccccc3)CC2)cc1 [Ex. 13, dihydrobromide]
Exercise: Could you kindly indicate whether a or b has the higher pIC50 value? Response format: the label of the selected entry.
Solution: a
